target: AgCyk3; test: SPOT peptide array binding signal intensity (averaged, normalized) (arbitrary units (background-subtracted, floor 0; scale differs between SH3 domains)); higher = stronger binding of the SH3 domain to the peptide
parameter: SPOT peptide array binding signal intensity
API doc: respond with a numeric literal and nothing else, no unit.

State the recorded SPOT peptide array binding signal intensity for this entry: RPKRRAPPPVPKKPS
1

Others:
So what does the record say about SPOT peptide array binding signal intensity for DLFKPLPEPPTELGR ?
1

Consider the binder shown here: RPVPRRPSQPLNTLS What is its recorded SPOT peptide array binding signal intensity?
1.25

Name the recorded SPOT peptide array binding signal intensity for QLLNPNRRAPRRPLS .
2

Any idea what SPOT peptide array binding signal intensity was measured for VYTRTAFQIPGDDKI ?
0.5

For the binder LKRITSPPLPPRADS , what SPOT peptide array binding signal intensity is on record?
1
